System: Staphylococcus epidermidis
Experiment: Antibacterial activity against Staphylococcus epidermidis MTCC 435 after 16 hr by cup-plate method
Type: functional
Details: MTCC 435, 16 h
measurement_type: MIC (µg/mL)

# smiles_notation, comparator, numeric_value
data = [
    ("Brc1ccc2c(c1)Sc1cccnc1N2C/C=C/CN1c2ccc(Br)cc2Sc2cccnc21", ">", 50),
    ("Clc1ccc2c(c1)Sc1cccnc1N2CCCCCCN1c2ccc(Cl)cc2Sc2cccnc21", ">", 50),
    ("Clc1ccc2c(c1)Sc1cccnc1N2CCCCN1c2ccc(Cl)cc2Sc2cccnc21", "=", 6.25),
    ("CC(=O)Nc1ccccc1Sc1ncccc1[N+](=O)[O-]", "=", 25),
    ("CC(=O)Nc1ccc(Br)cc1Sc1ncccc1[N+](=O)[O-]", "=", 6.25),
    ("Brc1ccc2c(c1)Sc1cccnc1N2CCCCCCN1c2ccc(Br)cc2Sc2cccnc21", "=", 6.25),
    ("c1ccc2c(c1)Sc1cccnc1N2CCCCN1c2ccccc2Sc2cccnc21", "=", 12.5),
    ("Fc1ccc2c(c1)Sc1cccnc1N2CCCCCCN1c2ccc(F)cc2Sc2cccnc21", "=", 12.5),
    ("C(=C\\CN1c2ccccc2Sc2cccnc21)/CN1c2ccccc2Sc2cccnc21", ">", 50),
    ("O=C(O)c1cn(C2CC2)c2cc(N3CCNCC3)c(F)cc2c1=O", "=", 6.25),
    ("Brc1ccc2c(c1)Sc1cccnc1N2CCCCN1c2ccc(Br)cc2Sc2cccnc21", "=", 25),
    ("CC(=O)Nc1ccc(F)cc1Sc1ncccc1[N+](=O)[O-]", "=", 25),
    ("CC(=O)Nc1ccc(Cl)cc1Sc1ncccc1[N+](=O)[O-]", "=", 6.25),
    ("Fc1ccc2c(c1)Sc1cccnc1N2CCCCN1c2ccc(F)cc2Sc2cccnc21", "=", 12.5),
    ("c1ccc2c(c1)Sc1cccnc1N2CCCCCCN1c2ccccc2Sc2cccnc21", "=", 6.25),
]
